Here is a set of molecules with reported log10(IC50) for Histone deacetylase 8 (Homo sapiens), compiled from the literature.
Each number you see is log10 of IC50, and the unit inside the log is nM.

Lookup: # get_value(readout='log10(IC50)', item= `CC(C)Oc1ccc(C(C)(C)O)cc1-c1cn(C)c(=O)c2[nH]c(C(=O)NCCCCCCC(=O)NO)cc12` )
Found: 2.00

Lookup: Quick one: log10(IC50) for `CC(C)(C)OC(=O)N1Cc2cc(OCC(=O)NO)ccc2C[C@H]1C(=O)Nc1cccc2ccccc12` ?
Found: 3.63

Lookup: Would you kindly share the measured log10(IC50) for `C[n+]1ccc(I)cc1` ?
Found: 2.64
